biological target: STAT5b-SH2 domain (Homo sapiens); assay: Competitive fluorescence polarization (FP) assay, STAT5b-SH2 domain; settings: Table 1; ligand efficiency
Sequence (P51692 136-703): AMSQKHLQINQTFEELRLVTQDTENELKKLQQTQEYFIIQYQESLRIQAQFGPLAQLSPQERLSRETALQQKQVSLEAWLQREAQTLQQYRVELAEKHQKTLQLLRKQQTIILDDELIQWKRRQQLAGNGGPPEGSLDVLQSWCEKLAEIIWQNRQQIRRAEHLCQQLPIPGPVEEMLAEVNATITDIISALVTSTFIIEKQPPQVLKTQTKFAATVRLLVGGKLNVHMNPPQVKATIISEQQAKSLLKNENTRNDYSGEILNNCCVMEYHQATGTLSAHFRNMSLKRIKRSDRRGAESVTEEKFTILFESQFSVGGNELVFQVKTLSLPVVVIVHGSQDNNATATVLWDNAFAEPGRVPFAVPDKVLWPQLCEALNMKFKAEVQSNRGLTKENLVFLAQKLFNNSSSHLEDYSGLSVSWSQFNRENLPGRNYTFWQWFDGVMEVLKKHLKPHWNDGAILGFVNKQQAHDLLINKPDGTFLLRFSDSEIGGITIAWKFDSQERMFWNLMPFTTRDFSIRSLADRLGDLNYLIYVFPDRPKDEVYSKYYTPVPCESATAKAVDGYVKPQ
Where a SMILES comes first, the peptide text is derived from it. [ ]: non-standard residue; d: D form. The star is where a group is joined. 5FAM = O=C1OC2(c3ccc(O)cc3Oc3cc(O)ccc32)c2ccc(C(=O)*)cc21; pY = N[C@@H](Cc1ccc(OP(=O)(O)O)cc1)C(=O)O
This section presents molecules with their documented LE values.
Give just the number in kJ/mol* atom#; leave the unit off.

CC(C)C[C@H](NC(=O)[C@H](Cc1ccc(OP(=O)(O)O)cc1)NC(=O)CNC(=O)c1ccc2c(c1)C(=O)OC21c2ccc(O)cc2Oc2cc(O)ccc21)C(=O)N[C@@H](CO)C(=O)N[C@@H](CC(C)C)C(=O)N1CCC[C@H]1C(=O)N1CCC[C@H]1C(=O)N[C@@H](Cc1c[nH]c2ccccc12)C(N)=O [Compound 2, Fluo-GY*LSLPPW-NH2, reference compound] (5FAM-G[pY]LSLPPW-NH2)
0.42
CC(=O)OC(C)OC(=O)c1nonc1NCn1cnnn1 (centres unmarked)
1.45
O=C(O)c1nonc1NCn1cncn1
1.64
O=C(O)c1nonc1NCn1cccn1
1.49

# evaluate next
If you can, please state the reported LE value of "COC(=O)c1nonc1NCn1cnnn1" .
1.58
